Just for reference, paper PMC8215210 is where these values come from.

Tgt: His-OpaR (Vibrio parahaemolyticus RIMD2210633)
Sequence: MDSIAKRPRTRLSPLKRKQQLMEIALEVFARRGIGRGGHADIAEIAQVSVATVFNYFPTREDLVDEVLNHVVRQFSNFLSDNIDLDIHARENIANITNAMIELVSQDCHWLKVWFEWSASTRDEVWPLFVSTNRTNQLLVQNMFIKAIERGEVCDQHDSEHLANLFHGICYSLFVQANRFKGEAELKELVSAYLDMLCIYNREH
Assay Comment: DNase I footprinting
Experimental Parameters: Buffer, salt, pH and temperature not given (as in Zhang et al., 2012, 2017); EMSA on 6% polyacrylamide gel; footprinting with 0, 6, 9, 12 pmol His-OpaR
Property Label: binding

| Sequence Code | Property Label | Recorded Measurement |
| --- | --- | --- |
| CCACTCCTCTTACAAGAATGAGGACGACATCAAGAAAATATTAAAAAATGGATAATTAACCATCGGTTAAGCGTAATAACTAATGACGCTATAAAGTTTTTTGTTATTATCAGTTAATTGTCAGTAGTACATGGACTTAACCGTAGTCGTTTCATGGGAATCTTGGAATCCGATATT (double strand) [VP0699 footprint probe] | binding | binds |
| CTTACCTTGGCGTACCTCTTGCCAATCCGTACTTTCAAATAAATCGCCTTGTCCTTGCATCCCGTTGCCTATTTAAACCATAAAAATTTCAGATAATTATTACCTTTGCAAAGGCTATTGGTTATTCTTGTAGATAATAAGAATTTTAACAATAAAAGAATAATTCTCGTAGTAACGGACGAGCTAGTGGGGAGCTAATGCGTTATTCACCCAGAAAGCAGT (double strand) [VPA0198 footprint probe] | binding | binds |
| GCTTTTCTAGGCACAAAATGACTTTAGAATGGATTAATGCGAAAGCAATTAAAAAAGTGTGAGTAACGGCTGCAAACTATTGATTTCAATGTCAGGTAACGTACGTGTTCTTGAATGATTAATGACATTTTTATTCATATCATTAAACCAACATGCGGCAAAACCCGCTAACTTTGCACCATATACATCCGTCGTGAGGTGGTCACCAACATGCAAAATGTTTTCGGCAGGTAAATCGAGGAACTGCT (double strand) [VP2979 footprint probe] | binding | binds |

====

Tgt: His-OpaR (Vibrio parahaemolyticus RIMD2210633) (UniProt Q79YV4)
Sequence: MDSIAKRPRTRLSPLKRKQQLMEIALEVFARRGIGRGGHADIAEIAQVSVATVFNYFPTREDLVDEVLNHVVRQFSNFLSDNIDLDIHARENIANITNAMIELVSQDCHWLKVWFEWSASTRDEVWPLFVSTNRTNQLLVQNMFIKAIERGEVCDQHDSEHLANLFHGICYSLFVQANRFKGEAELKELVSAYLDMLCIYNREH
Assay Comment: DNase I footprinting
Experimental Parameters: Buffer, salt, pH and temperature not given (as in Zhang et al., 2012, 2017); EMSA on 6% polyacrylamide gel; footprinting with 0, 6, 9, 12 pmol His-OpaR
Property Label: binding

| Sequence Code | Property Label | Recorded Measurement |
| --- | --- | --- |
| AGACAATCACACCGATAGCCAGTAAGAAAATCATCACAAAAGGGATGAGTACAGCAGTACGTAGTGTAATTTGAGTCTTTGCAGTAGACATTGCCTAGTCACATTAGGGATGGTTCACCTTAATTGTACTGACATTTCTGTTAATATCGAGCGCTAAGCACTCTCATTGTTAACTCACTGCTTAAGTGACGGTCAGTACAACTCTTTTAACTTTCTGGTTAGCGTATTGCGTCCCCAGCCTAATACTTTAGCGGCATCTTGCTTGTGACCTTTAGTGTG (double strand) [VP0117 footprint probe] | binding | binds |
| CCATTAAGTGACTTTAGTTCCACTTTTTTAGCTTATTTGATGACATAAGCAACAGTTTCGCCTCCAACCAATAAACAACTGAATACATATTAAAATATTCATTAAATTGACTATTTTTATGATAAACGCTTAATAATAGTTTTATCTATAAACAAACAGTGAGCTTTGTTATAAATTCATTAAAAATTTAACTTTGTATTAATTAGAAAATTCAGCGTCATATTTGTTCAACTGCGA (double strand) [scrA footprint probe] | binding | binds |
| GCCATATTCCAAACTCGTTGTGCCTGCCTTTTCAAGAACTGCTGGATAACGGTTACATCAAACCGAACTCAGAATTGAAACAAGCATTTAGCGAACTGTCGCTATATAATGACAATTCAATCATTTTCAGCTGTGGCTCAGGTGTGACTGCCTGTATTTTATTGTTGGCAGCTCATCAACTTGGCTTACGCA (double strand) [VPA1176 footprint probe] | binding | binds |
